- Method notes: solvent given as SMILES
- Study conditions: in CCOC(C)=O
Use met when the recorded emission maximum is no lower than 400 nm; use not met when it is lower.

Some solved entries appear below for comparison.
- COC(=O)/C=C/c1ccc2ccc3cccc4ccc1c2c34: met
- c1ccc(Nc2nc(Nc3ccccc3)nc(Nc3ccc4cc5ccccc5cc4c3)n2)cc1: met
- CC1=N/C(=C\c2ccncc2)C(=O)N1C: met
- CC1=[N+]2C(=C(Oc3cc(C)c4c(c3)CC[C@@](C)(CCC[C@H](C)CCC[C@H](C)CCCC(C)C)O4)c3ccc(C)n3[B-]2(F)F)C=C1c1cc2n(c1)[B-](F)(F)[N+]1=CC=CC1=C2c1c(C)cc(C)cc1C: met
- Cc1cc2c3ccccc3oc2c2c1c1ccccc1n2-c1ccc(C#N)cc1: not met

Prompt: Does CCCCCN(c1ccccc1)c1ccc2c(c1)C(CC)(CC)c1cc(/C=C/c3ccc(/C=C(\C#N)C(=O)O)s3)ccc1-2 have a reported emission maximum of at least 400 nm?
Response: met

Prompt: Would you say N#Cc1cccc2c(N)c(-c3nn([C@H]4C[C@H](O)[C@@H](CO)O4)c4ncnc(N)c34)ccc12 shows emission maximum at minimum 400 nm?
Response: met

Prompt: Quick check, emission maximum >= 400 nm? Cc1cccc2cc(-c3cc4cccc(C)c4oc3=O)oc12
Response: met

Prompt: # bool: emission maximum of COc1cccc(/C=C/c2ccccc2)c1 >= 400 nm
Response: not met

Prompt: Quick check, emission maximum >= 400 nm? COc1nc(Nc2ccc3c4cccc5cccc(c6cccc2c63)c54)nc(OC)n1
Response: met

Prompt: Tell me whether emission maximum is at least 400 nm here: CCn1c(-c2ccc(-c3ccc4c(c3)C(C)(C)c3ccccc3-4)cc2)c(-c2ccc3ccccc3c2)c(-c2ccc3ccccc3c2)c1-c1ccc(-c2ccc3c(c2)C(C)(C)c2ccccc2-3)cc1
Response: met

Prompt: Is emission maximum for COC1=[N+]2C(=C(c3ccccc3)c3ccc(OC)n3[B-]2(F)F)C=C1 at or above 400 nm?
Response: met

Prompt: API: above_or_equal(metric=emission maximum, cutoff=400 nm) for item C#CCNC1=C2C(C)=CC(C)=[N+]2[B-](F)(F)n2c(C)cc(C)c21
Response: met

Prompt: Test whether the compound Nc1ncnc2c1c(-c1ccc3ccccc3c1)nn2[C@H]1C[C@H](O)[C@@H](CO)O1 records emission maximum of 400 nm or higher.
Response: not met

Prompt: Tell me whether emission maximum is at least 400 nm here: Cc1ccc(C2=C3C=CC(C#Cc4ccccc4)=[N+]3[B-](F)(F)n3c(C#Cc4ccccc4)ccc32)cc1
Response: met

Prompt: Please check the record O=Cc1c(O)c(-c2nc3ccccc3s2)cc2ccccc12 and state if its emission maximum is at or above 400 nm.
Response: met

Prompt: Would you say c1ccc2cc(-n3cnc4ccccc43)ccc2c1 shows emission maximum at minimum 400 nm?
Response: not met

Prompt: Hi team, for COc1ccc2cc3c(C)cc(=O)oc3cc2c1 , is the recorded emission maximum at or above 400 nm?
Response: met

----------
- Method notes: solvent given as SMILES
- Study conditions: in Cc1ccccc1
So basically, if emission maximum comes in under 500 nm it's 1 (yes), and if it's 500 nm or more it's 0 (no).

Known results for molecules:
• C(#Cc1ccc(-n2c3ccccc3c3ccccc32)cc1)c1ccccc1 = 1 (yes)
• CCCOc1ccc(/C=C/C=C/C=C/c2ccc([N+](=O)[O-])cc2)cc1 = 0 (no)
• COc1ccc(-c2c3ccc([nH]3)c3nc(c(-c4ccc(C#N)cc4)c4ccc([nH]4)c4ccc([nH]4)c(-c4ccc(OC)cc4)c4ccc2o4)C=C3)cc1 = 0 (no)

Prompt: Hi there! Is emission maximum for COC(=O)/C=C/c1ccc2ccc3cccc4ccc1c2c34 below 500 nm, do you know?
Response: 1 (yes)

Prompt: A record lists CN(C)c1ccc(/C=C/c2ccc([N+](=O)[O-])c(O)c2)cc1 . Is its emission maximum below 500 nm?
Response: 0 (no)

Prompt: Is emission maximum strictly under 500 nm for the entry CCCCCCC1(CCCCCC)c2cc(-c3nc(-c4ccc5c(c4)C(CCCCCC)(CCCCCC)c4cc(N6c7ccccc7Oc7ccccc76)ccc4-5)nc(-c4ccc5c(c4)C(CCCCCC)(CCCCCC)c4cc(N6c7ccccc7Oc7ccccc76)ccc4-5)n3)ccc2-c2ccc(N3c4ccccc4Oc4ccccc43)cc21 ?
Response: 0 (no)

src = the Deep4Chem optical property database
